What glycan array binding signal (z-score) was measured for each of the following?
# MEASURED_TARGET: Fuc(a1-3)[Neu5Ac(a2-3)]Gal(b1-4)GlcNAc(b1-3)GalNAc
# PROCEDURE_TEXT: glycan array binding signal (z-score within array); higher = stronger binding
# TEST_CONDITIONS: glycan notation: IUPAC condensed, linker removed
Only a selection was taken, and the strongest signals are over-represented in it overall.

Prompt: For the binder shown here, DGL (Dioclea grandiflora), P08902 (protein) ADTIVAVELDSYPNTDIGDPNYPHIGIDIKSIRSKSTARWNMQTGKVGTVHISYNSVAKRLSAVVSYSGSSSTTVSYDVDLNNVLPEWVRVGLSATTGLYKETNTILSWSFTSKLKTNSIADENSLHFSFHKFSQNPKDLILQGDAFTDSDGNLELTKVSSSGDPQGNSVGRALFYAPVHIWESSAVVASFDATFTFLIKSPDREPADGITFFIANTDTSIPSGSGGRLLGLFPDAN , give the reported glycan array binding signal (z-score).
Completion: -0.072

Prompt: For the binder shown here, HPA (Helix pomatia), Q2F1K8 (protein) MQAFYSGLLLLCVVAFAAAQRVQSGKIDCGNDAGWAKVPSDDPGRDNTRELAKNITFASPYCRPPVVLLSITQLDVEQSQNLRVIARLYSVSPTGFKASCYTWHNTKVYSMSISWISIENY , give the reported glycan array binding signal (z-score).
Completion: 4.26

Prompt: For the binder shown here, LcH (Lens culinaris), P02870 (protein) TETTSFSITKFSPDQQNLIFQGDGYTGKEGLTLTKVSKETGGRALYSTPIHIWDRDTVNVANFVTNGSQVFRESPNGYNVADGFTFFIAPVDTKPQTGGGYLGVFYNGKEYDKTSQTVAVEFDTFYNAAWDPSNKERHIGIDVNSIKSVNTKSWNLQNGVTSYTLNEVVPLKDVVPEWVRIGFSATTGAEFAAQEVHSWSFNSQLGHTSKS , give the reported glycan array binding signal (z-score).
Completion: -0.132

Prompt: For the binder shown here, Flo11 (Saccharomyces cerevisiae), Q1H8S8 (protein) MGSSHHHHHHSSGLVPRGSHMFPTALVPRGSSEGTSCNSIVNGCPNLDFNWHMDQQNIMQYTLDVTSVSWVQDNTYQITIHVKGKENIDLKYLWSLKIIGVTGPKGTVQLYGYNENTYLIDNPTDFTATFEVYATQDVNSCQVWMPNFQIQFEYLQGSAAQYASSWQWGTTSFDLSTGCNNYDNQGHSQTDFPGFYWNIDCDNNCGGTKSS , give the reported glycan array binding signal (z-score).
Completion: 3.1
